test-details: Rat pharmacokinetic studies: plasma PK of ribociclib after single i.v. or oral dose
Type: in vivo
condition: male, Hanover Wistar, rat m (3), po, 9.8 mg base/kg, AUC interval 24 h
property: AUC(0-t)
Could you write the number and then its unit?

Request: Provide one value: measured AUC(0-t) of CN(C)C(=O)c1cc2cnc(Nc3ccc(N4CCNCC4)cn3)nc2n1C1CCCC1
Result: 1340 ng·h/mL

###

test-details: Dog pharmacokinetic studies: plasma PK of ribociclib after single i.v. or oral dose
Assay type: in vivo
condition: male, Beagle, 5 mg/kg, dog m (3), po, 5.0 mg base/kg, AUC interval 168 h
property: AUC(0-t)
Could you write the number and then its unit?

Request: Provide one value: measured AUC(0-t) of CN(C)C(=O)c1cc2cnc(Nc3ccc(N4CCNCC4)cn3)nc2n1C1CCCC1 [ribociclib, Ribociclib]
Result: 4520 ng·h/mL

###

test-details: Rat pharmacokinetic studies: plasma PK of ribociclib after single i.v. or oral dose
Assay type: in vivo
condition: male, Sprague Dawley, rat, po, 5 mg/kg
property: AUC(0-t) (ng·h/mL)
The answer is to be given in ng·h/mL; state only the numeric part.

Request: Provide one value: measured AUC(0-t) of CN(C)C(=O)c1cc2cnc(Nc3ccc(N4CCNCC4)cn3)nc2n1C1CCCC1
Result: 672

###

test-details: Dog pharmacokinetic studies: plasma PK of ribociclib after single i.v. or oral dose
Assay type: in vivo
condition: male, Beagle, dog m (4), po, 18.9 mg base/kg, AUC interval 48 h
property: AUC(0-t)
Could you write the number and then its unit?

Request: Provide one value: measured AUC(0-t) of CN(C)C(=O)c1cc2cnc(Nc3ccc(N4CCNCC4)cn3)nc2n1C1CCCC1
Result: 21100 ng·h/mL

###

test-details: Human ADME study: PK of ribociclib and LEQ803 in plasma and urine (validated bioanalytical assay)
Type: in vivo
condition: human, plasma, po, 600 mg, human plasma, bioanalytical assay, single oral 600 mg, N=6; read-out: t½, median (converted)
property: half-life (h)
The answer is to be given in h; state only the numeric part.

> print(dat)
                                   molecule  result
1  CN(C)C(=O)c1cc2cnc(Nc3ccc(N4CCNCC4)cn3)nc2n1C1CCCC1 [ribociclib, Ribociclib]    49.4

Pending molecule:
Request: Provide one value: measured half-life of CNC(=O)c1cc2cnc(Nc3ccc(N4CCNCC4)cn3)nc2n1C1CCCC1 [M4 (LEQ803)]
Result: 78.2

###

test-details: Rat pharmacokinetic studies: plasma PK of ribociclib after single i.v. or oral dose
Assay type: in vivo
condition: male, iv, rat m (3), i.v., 4.1 mg base/kg, read-out: Vss
property: Vd (L/kg)
The answer is to be given in L/kg; state only the numeric part.

Request: Provide one value: measured Vd of CN(C)C(=O)c1cc2cnc(Nc3ccc(N4CCNCC4)cn3)nc2n1C1CCCC1
Result: 7.9

###

test-details: Rat pharmacokinetic studies: plasma PK of ribociclib after single i.v. or oral dose
Assay type: in vivo
condition: male, iv, rat m (2), 2.0 mg base/kg
property: clearance (mL/min/kg)
The answer is to be given in mL/min/kg; state only the numeric part.

Request: Provide one value: measured clearance of CN(C)C(=O)c1cc2cnc(Nc3ccc(N4CCNCC4)cn3)nc2n1C1CCCC1
Result: 51.7

Sourced from paper PMC7287031
